# ASSAYED TARGET: LHCGR (Homo sapiens, UniProt P22888)
# Construct: purchased Promega (in-house HiBiT-GPCR construct library, NanoBRET)
# Sequence (P22888 27-699): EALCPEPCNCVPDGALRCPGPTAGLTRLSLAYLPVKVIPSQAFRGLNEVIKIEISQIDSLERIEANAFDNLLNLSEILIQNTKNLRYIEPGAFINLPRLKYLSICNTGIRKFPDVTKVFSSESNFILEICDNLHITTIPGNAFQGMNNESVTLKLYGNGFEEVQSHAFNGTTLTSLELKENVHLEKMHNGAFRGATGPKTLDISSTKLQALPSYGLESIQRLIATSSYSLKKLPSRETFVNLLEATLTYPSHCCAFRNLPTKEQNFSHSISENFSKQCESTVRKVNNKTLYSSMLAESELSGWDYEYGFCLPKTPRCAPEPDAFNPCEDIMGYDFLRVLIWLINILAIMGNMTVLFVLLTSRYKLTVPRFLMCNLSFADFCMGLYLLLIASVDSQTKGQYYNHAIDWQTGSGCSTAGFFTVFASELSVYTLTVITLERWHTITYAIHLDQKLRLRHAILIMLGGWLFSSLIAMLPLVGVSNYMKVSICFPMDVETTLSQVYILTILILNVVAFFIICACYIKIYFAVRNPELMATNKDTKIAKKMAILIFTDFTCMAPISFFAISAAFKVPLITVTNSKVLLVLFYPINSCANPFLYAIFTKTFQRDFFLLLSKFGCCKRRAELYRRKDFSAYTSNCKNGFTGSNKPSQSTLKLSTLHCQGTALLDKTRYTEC
# METHOD DESCRIPTION: NanoBRET screen HiBiT-LHCGR in HEK293
# Assay type: binding
# TEST SETTINGS: LHCGR; tracer 0.1μM
PROPERTY MEASURED: NanoBRET Fold Response
Write no unit; give the number alone.

Before answering, review these 3 worked examples.
O=C(CCOCCOCCOCCOCCNC(=O)CCc1ccc2n1[B-](F)(F)[N+]1=C(c3ccc[nH]3)C=CC1=C2)NCCCN1CCN(C2=Nc3ccccc3Oc3ccc(Cl)cc32)CC1 [Loxapine-a-2-NB590]    0.97
CC(C)N(CC[C@H](c1ccccc1)c1cc(CCNC(=O)CCOCCOCCOCCOCCNC(=O)CCc2ccc3n2[B-](F)(F)[N+]2=C(c4ccc[nH]4)C=CC2=C3)ccc1O)C(C)C [Tolterodine-2-NB590]    1.08
CCCn1c(=O)c2[nH]c(-c3ccc(OCC(=O)NCCNC(=O)CCOCCNC(=O)c4ccc(CNC(=O)CCc5ccc6n5[B-](F)(F)[N+]5=C(c7ccc[nH]7)C=CC5=C6)cc4)cc3)nc2n(CCC)c1=O [XAC-3-NB590]    1.01

Exam item: Please supply the value of reported NanoBRET Fold Response for the item COc1ccccc1N1CCN(CCCCN2C(=O)c3ccc(CNC(=O)CCOCCOCCOCCOCCNC(=O)CCc4ccc5n4[B-](F)(F)[N+]4=C(c6ccc[nH]6)C=CC4=C5)cc3C2=O)CC1 [NAN-190-2-NB590]
Marked response: 0.98

Exam item: Please supply the value of reported NanoBRET Fold Response for the item COc1ccccc1N1CCN(CCCCN2C(=O)c3ccc(CNC(=O)CCOCCNC(=O)c4ccc(CNC(=O)CCc5ccc6n5[B-](F)(F)[N+]5=C(c7ccc[nH]7)C=CC5=C6)cc4)cc3C2=O)CC1 [NAN-190-3-NB590]
Marked response: 0.98

Exam item: Please supply the value of reported NanoBRET Fold Response for the item Cc1cc2c(s1)Nc1ccccc1N=C2N1CCN(CCCNC(=O)CCOCCOCCOCCOCCNC(=O)CCc2ccc3n2[B-](F)(F)[N+]2=C(c4ccc[nH]4)C=CC2=C3)CC1 [Olanzapine-a-2-NB590]
Marked response: 1.00

Exam item: Please supply the value of reported NanoBRET Fold Response for the item O=C(CCc1ccc2n1[B-](F)(F)[N+]1=C(c3ccc[nH]3)C=CC1=C2)NCc1ccc(C(=O)NCCOCCC(=O)N[C@@H]2CC[C@@]3(O)[C@H]4Cc5ccc(O)c6c5[C@@]3(CCN4CC3CC3)[C@H]2O6)cc1 [Naltrexone-3-NB590]
Marked response: 0.89

Exam item: Please supply the value of reported NanoBRET Fold Response for the item O=C(CCc1ccc2n1[B-](F)(F)[N+]1=C(c3ccc[nH]3)C=CC1=C2)NCCOCCOCCNC(=O)OCCOCCN1CCN(C2=Nc3ccccc3Sc3ccccc32)CC1 [Quetiapine-a-2-NB590]
Marked response: 1.01

Exam item: Please supply the value of reported NanoBRET Fold Response for the item N#CN=C(NCCCOc1cccc(CN2CCCCC2)c1)NCCNC(=O)CCOCCOCCOCCOCCNC(=O)CCc1ccc2n1[B-](F)(F)[N+]1=C(c3ccc[nH]3)C=CC1=C2 [Aminopotentidine-2-NB590]
Marked response: 1.03

Exam item: Please supply the value of reported NanoBRET Fold Response for the item CN(C)CCC=C1c2ccccc2CCc2ccc(C(=O)NCCNC(=O)CCOCCOCCOCCOCCNC(=O)CCc3ccc4n3[B-](F)(F)[N+]3=C(c5ccc[nH]5)C=CC3=C4)cc21 [Amitriptyline-b-2-NB590]
Marked response: 1.05

Exam item: Please supply the value of reported NanoBRET Fold Response for the item Cc1nc2n(c(=O)c1CCN1CCC(c3noc4cc(F)ccc34)CC1)CCCC2OC(=O)NCCOCCOCCOCCOCCNC(=O)CCc1ccc2n1[B-](F)(F)[N+]1=C(c3ccc[nH]3)C=CC1=C2 (stereo not drawn) [Risperidone-2-NB590]
Marked response: 0.99

Exam item: Please supply the value of reported NanoBRET Fold Response for the item CC(C)N(CC[C@H](c1ccccc1)c1cc(CCNC(=O)c2ccc(CNC(=O)CCc3ccc4n3[B-](F)(F)[N+]3=C(c5ccc[nH]5)C=CC3=C4)cc2)ccc1O)C(C)C [Tolterodine-BZ-NB590]
Marked response: 0.98

###

Entries and their measured NanoBRET Fold Response follow.
# ASSAYED TARGET: CCR6 (Homo sapiens, UniProt P51684)
# Construct: purchased Promega (in-house HiBiT-GPCR construct library, NanoBRET)
# Sequence (P51684 whole entry): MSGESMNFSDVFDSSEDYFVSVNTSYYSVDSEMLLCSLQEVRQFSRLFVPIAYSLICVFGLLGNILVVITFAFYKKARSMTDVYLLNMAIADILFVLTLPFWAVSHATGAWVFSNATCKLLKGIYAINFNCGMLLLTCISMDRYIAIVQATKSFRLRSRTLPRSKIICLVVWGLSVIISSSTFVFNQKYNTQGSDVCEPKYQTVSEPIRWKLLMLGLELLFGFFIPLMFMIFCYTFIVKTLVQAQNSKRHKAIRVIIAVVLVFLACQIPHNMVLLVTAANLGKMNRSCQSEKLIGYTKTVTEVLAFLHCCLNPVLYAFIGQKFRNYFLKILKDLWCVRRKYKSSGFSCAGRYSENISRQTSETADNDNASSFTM
# METHOD DESCRIPTION: NanoBRET screen HiBiT-CCR6 in HEK293
# Format: binding
# TEST SETTINGS: CCR6; tracer 1μM
Write no unit; give the number alone.

Before answering, review these 2 worked examples.
Cc1cc2c(s1)Nc1ccccc1N=C2N1CCN(CCCNC(=O)CCOCCOCCOCCOCCNC(=O)CCc2ccc3n2[B-](F)(F)[N+]2=C(c4ccc[nH]4)C=CC2=C3)CC1    1.21
CCCn1c(=O)c2[nH]c(-c3ccc(OCC(=O)NCCNC(=O)CCOCCNC(=O)c4ccc(CNC(=O)CCc5ccc6n5[B-](F)(F)[N+]5=C(c7ccc[nH]7)C=CC5=C6)cc4)cc3)nc2n(CCC)c1=O    1.26

// below: NanoBRET Fold Response requested for another molecule
Exam item: Please supply the value of reported NanoBRET Fold Response for the item CC(C)N(CC[C@H](c1ccccc1)c1cc(CCNC(=O)CCOCCOCCOCCOCCNC(=O)CCc2ccc3n2[B-](F)(F)[N+]2=C(c4ccc[nH]4)C=CC2=C3)ccc1O)C(C)C
Marked response: 1.01

###

# ASSAYED TARGET: FZD9 (Homo sapiens, UniProt O00144)
# Construct: purchased Promega (in-house HiBiT-GPCR construct library, NanoBRET)
# Sequence (O00144 23-591): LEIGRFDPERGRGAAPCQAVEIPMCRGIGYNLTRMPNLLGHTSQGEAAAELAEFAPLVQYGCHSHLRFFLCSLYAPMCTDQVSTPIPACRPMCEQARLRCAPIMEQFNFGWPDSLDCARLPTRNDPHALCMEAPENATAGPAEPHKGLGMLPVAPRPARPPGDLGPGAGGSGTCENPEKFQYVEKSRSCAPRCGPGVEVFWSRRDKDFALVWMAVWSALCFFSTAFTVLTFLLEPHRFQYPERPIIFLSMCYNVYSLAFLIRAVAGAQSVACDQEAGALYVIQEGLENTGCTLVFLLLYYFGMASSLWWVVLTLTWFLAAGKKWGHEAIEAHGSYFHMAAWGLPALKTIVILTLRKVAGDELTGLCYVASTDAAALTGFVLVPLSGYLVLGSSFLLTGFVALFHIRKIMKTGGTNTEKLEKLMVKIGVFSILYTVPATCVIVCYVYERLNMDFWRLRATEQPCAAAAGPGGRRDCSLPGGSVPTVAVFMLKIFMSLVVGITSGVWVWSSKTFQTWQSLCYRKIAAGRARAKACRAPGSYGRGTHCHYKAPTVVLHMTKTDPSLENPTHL
# METHOD DESCRIPTION: NanoBRET screen HiBiT-FZD9 in HEK293
# Format: binding
# TEST SETTINGS: FZD9; tracer 1μM
PROPERTY MEASURED: NanoBRET Fold Response
Write no unit; give the number alone.

COc1ccccc1N1CCN(CCCCN2C(=O)c3ccc(CNC(=O)CCOCCOCCOCCOCCNC(=O)CCc4ccc5n4[B-](F)(F)[N+]4=C(c6ccc[nH]6)C=CC4=C5)cc3C2=O)CC1    1.06

Exam item: Please supply the value of reported NanoBRET Fold Response for the item O=C(CCOCCOCCOCCOCCNC(=O)CCc1ccc2n1[B-](F)(F)[N+]1=C(c3ccc[nH]3)C=CC1=C2)NCCCN1CCN(C2=Nc3ccccc3Oc3ccc(Cl)cc32)CC1
Marked response: 1.07

Exam item: Please supply the value of reported NanoBRET Fold Response for the item Cc1nc2n(c(=O)c1CCN1CCC(c3noc4cc(F)ccc34)CC1)CCCC2OC(=O)NCCOCCOCCOCCOCCNC(=O)CCc1ccc2n1[B-](F)(F)[N+]1=C(c3ccc[nH]3)C=CC1=C2 (centres unmarked)
Marked response: 0.99

Exam item: Please supply the value of reported NanoBRET Fold Response for the item CCCn1c(=O)c2[nH]c(-c3ccc(OCC(=O)NCCNC(=O)CCOCCNC(=O)c4ccc(CNC(=O)CCc5ccc6n5[B-](F)(F)[N+]5=C(c7ccc[nH]7)C=CC5=C6)cc4)cc3)nc2n(CCC)c1=O
Marked response: 1.07

Exam item: Please supply the value of reported NanoBRET Fold Response for the item N#CN=C(NCCCOc1cccc(CN2CCCCC2)c1)NCCNC(=O)CCOCCOCCOCCOCCNC(=O)CCc1ccc2n1[B-](F)(F)[N+]1=C(c3ccc[nH]3)C=CC1=C2
Marked response: 1.01

Exam item: Please supply the value of reported NanoBRET Fold Response for the item CC(C)N(CC[C@H](c1ccccc1)c1cc(CCNC(=O)c2ccc(CNC(=O)CCc3ccc4n3[B-](F)(F)[N+]3=C(c5ccc[nH]5)C=CC3=C4)cc2)ccc1O)C(C)C
Marked response: 1.04

Exam item: Please supply the value of reported NanoBRET Fold Response for the item Cc1cc2c(s1)Nc1ccccc1N=C2N1CCN(CCCNC(=O)CCOCCOCCOCCOCCNC(=O)CCc2ccc3n2[B-](F)(F)[N+]2=C(c4ccc[nH]4)C=CC2=C3)CC1
Marked response: 0.95

Exam item: Please supply the value of reported NanoBRET Fold Response for the item O=C(CCc1ccc2n1[B-](F)(F)[N+]1=C(c3ccc[nH]3)C=CC1=C2)NCCOCCOCCNC(=O)OCCOCCN1CCN(C2=Nc3ccccc3Sc3ccccc32)CC1
Marked response: 0.78

Exam item: Please supply the value of reported NanoBRET Fold Response for the item COc1ccccc1N1CCN(CCCCN2C(=O)c3ccc(CNC(=O)CCOCCNC(=O)c4ccc(CNC(=O)CCc5ccc6n5[B-](F)(F)[N+]5=C(c7ccc[nH]7)C=CC5=C6)cc4)cc3C2=O)CC1
Marked response: 1.18

Exam item: Please supply the value of reported NanoBRET Fold Response for the item CC(C)N(CC[C@H](c1ccccc1)c1cc(CCNC(=O)CCOCCOCCOCCOCCNC(=O)CCc2ccc3n2[B-](F)(F)[N+]2=C(c4ccc[nH]4)C=CC2=C3)ccc1O)C(C)C
Marked response: 0.85

Exam item: Please supply the value of reported NanoBRET Fold Response for the item O=C(CCc1ccc2n1[B-](F)(F)[N+]1=C(c3ccc[nH]3)C=CC1=C2)NCc1ccc(C(=O)NCCOCCC(=O)N[C@@H]2CC[C@@]3(O)[C@H]4Cc5ccc(O)c6c5[C@@]3(CCN4CC3CC3)[C@H]2O6)cc1 [Naltrexone-3-NB590]
Marked response: 0.96
